Each item that follows carries a reported IC50.
target: GST-FAK (N-terminal GST fusion with truncated human FAK (376-1052 (end) amino acids)) (Homo sapiens, UniProt Q05397); construct: truncated human FAK (376-1052 (end) amino acids); experiment: Biochemical enzyme assay for FAK activity (Caliper LC3000 mobility shift); details: Table 5; 100 uM ATP; read-out: FAK IC50
Sequence (Q05397 376-1052): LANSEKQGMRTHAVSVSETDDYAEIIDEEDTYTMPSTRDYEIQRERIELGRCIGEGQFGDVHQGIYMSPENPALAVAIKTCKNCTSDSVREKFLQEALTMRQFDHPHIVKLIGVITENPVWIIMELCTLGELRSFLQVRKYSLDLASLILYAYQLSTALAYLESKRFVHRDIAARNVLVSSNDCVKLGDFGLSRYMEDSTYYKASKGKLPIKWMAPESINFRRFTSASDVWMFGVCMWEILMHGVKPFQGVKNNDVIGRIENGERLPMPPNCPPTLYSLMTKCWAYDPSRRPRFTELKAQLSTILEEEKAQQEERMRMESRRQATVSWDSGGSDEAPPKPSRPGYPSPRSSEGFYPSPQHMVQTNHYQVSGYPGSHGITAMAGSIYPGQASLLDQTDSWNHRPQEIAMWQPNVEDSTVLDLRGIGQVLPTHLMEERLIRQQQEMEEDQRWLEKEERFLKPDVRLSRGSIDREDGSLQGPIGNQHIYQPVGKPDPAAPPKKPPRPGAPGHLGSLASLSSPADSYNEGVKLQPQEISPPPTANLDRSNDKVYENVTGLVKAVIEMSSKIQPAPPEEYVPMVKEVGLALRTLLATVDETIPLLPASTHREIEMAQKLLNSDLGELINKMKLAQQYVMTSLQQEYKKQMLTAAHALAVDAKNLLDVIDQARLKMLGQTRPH

INSERT INTO measurements (compound, observation_type, value) VALUES
  ('CS(=O)(=O)Nc1cccc(-c2nccc(NCc3ccc(F)cc3C(F)(F)F)n2)c1', 'IC50', '> 10 µM'),
  ('N#Cc1cncc(-c2ncc(C(F)(F)F)c(NCc3ccc(F)cc3F)n2)c1', 'IC50', '> 10 µM'),
  ('COc1cncc(-c2nccc(NCc3ccc4[nH]c(=O)[nH]c4c3)n2)c1', 'IC50', '> 10 µM'),
  ('O=C(c1cc(NCc2ccc(F)cc2F)nc(-c2cncc(C(F)(F)F)c2)n1)N1CCOCC1', 'IC50', '< 0.1 µM'),
  ('O=C1CCCN1CCNc1ccnc(-c2cncc(C(F)(F)F)c2)n1', 'IC50', '> 10 µM');

INPUT: Which IC50 reading was recorded for the compound CN(C)C(=O)c1cc(NCc2ccc(F)cc2F)nc(-c2cncc(C(F)(F)F)c2)n1 ?
OUTPUT: < 0.1 µM

INPUT: Tell me the measured IC50 of CN(C)C(=O)c1ccccc1Nc1ccnc(-c2cncc(C(F)(F)F)c2)n1 , please.
OUTPUT: > 10 µM

INPUT: Data request, read-out IC50, for Fc1ccc(CNc2cccc(-c3cncc(C(F)(F)F)c3)n2)c(F)c1
OUTPUT: < 0.1 µM

INPUT: Fill in: IC50 of Cc1ccccc1CNc1ccnc(-c2cncc(C(F)(F)F)c2)n1 is ___
OUTPUT: 0.1 to 1 µM

INPUT: Query: IC50; subject: O=C(O)c1cc(NCc2ccc(F)cc2F)nc(-c2cncc(C(F)(F)F)c2)n1
OUTPUT: 0.1 to 1 µM

INPUT: Sample COc1cncc(-c2nccc(NCc3cc(C)nn3C)n2)c1 — what was its IC50?
OUTPUT: > 10 µM

INPUT: Return reported IC50; argument: CNC(=O)C1(NC(=O)c2cc(NCc3ccc(F)cc3F)nc(-c3cncc(C(F)(F)F)c3)n2)CC1
OUTPUT: 0.1 to 1 µM

INPUT: Which IC50 value is on record for Cc1cc(F)ncc1-c1nccc(NCc2ccccc2F)n1 ?
OUTPUT: > 10 µM

---

molecular target: GST-FAK (N-terminal GST fusion with truncated human FAK (376-1052 (end) amino acids)) (Homo sapiens, UniProt Q05397); construct: truncated human FAK (376-1052 (end) amino acids); assay: Biochemical enzyme assay for FAK activity (Caliper LC3000 mobility shift); conditions: Table 1; 100 uM ATP; read-out: FAK IC50
Entries and their measured IC50 follow.

See these solved cases before continuing.
INSERT INTO measurements (input_smiles, value) VALUES
  ('CC1(C)Cc2cccc(CNc3ccnc(-c4cncc(F)c4)n3)c2O1', '> 10 µM'),
  ('CC1(C)Cc2cccc(CNc3ccnc(-c4cncc(Cl)c4)n3)c2O1', '> 10 µM');

// next item, IC50 requested
INPUT: Could you share which IC50 value was measured for O=C(c1cncc(-c2nccc(NCc3ccc(Oc4ccc(F)cc4)cc3)n2)c1)N1CCOCC1 ?
OUTPUT: > 10 µM
